Cited source: paper PMC10823258

- target system: wheat eIF4E (Triticum aestivum)
- Sequence (P29557 39-215): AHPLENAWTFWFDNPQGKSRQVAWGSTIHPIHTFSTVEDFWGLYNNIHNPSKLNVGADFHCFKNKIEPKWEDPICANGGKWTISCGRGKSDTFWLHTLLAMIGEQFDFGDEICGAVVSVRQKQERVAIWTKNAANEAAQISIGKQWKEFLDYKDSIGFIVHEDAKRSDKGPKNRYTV
assay metric: pKd
// returns pKd (minus log10 of molar concentration), number only

Consider the compound shown here: C[n+]1cn([C@@H]2O[C@H](COP(=O)(O)OP(=O)(O)OP(=O)(O)O)[C@@H](O)[C@H]2O)c2nc(N)[nH]c(=O)c21 What is its recorded pKd?
5.74
